TEST_DESCRIPTION: Plasma pharmacokinetics (LC–MS/MS, non-compartmental analysis)
Assay type: in vivo, Japanese patients
APPLIED_CONDITIONS: human, plasma, oral, 1200 mg, Cycle 1 Day 28; 1200 mg qd; n = 2; read-out: Tmax, Median
ATTRIBUTE_MEASURED: Tmax
For clarity, give the value followed by its unit.

What value of measured Tmax is listed for Cn1c(=O)n(-c2ccc(C(C)(C)C#N)cc2)c2c3cc(-c4cnc5ccccc5c4)ccc3ncc21 [BEZ235] ?
5.9 h

###

TEST_DESCRIPTION: Plasma pharmacokinetics (LC–MS/MS, non-compartmental analysis)
Type: in vivo, Japanese patients
APPLIED_CONDITIONS: human, plasma, oral, 1000 mg, Cycle 1 Day 1; 1000 mg qd; n = 3; read-out: AUCinf, Median
ATTRIBUTE_MEASURED: AUC(0-inf) (ng·h/mL)
Entry rule: numbers only, all in ng·h/mL.

Which AUC(0-inf) is reported for this compound? Cn1c(=O)n(-c2ccc(C(C)(C)C#N)cc2)c2c3cc(-c4cnc5ccccc5c4)ccc3ncc21 [BEZ235]
1410

Data origin, for the record: paper PMC6394493
